Recorded measurements of ELISA OD, one per entry
- study.system: mutC4/Cmut4
- procedure.details: ELISA, VHH on coated antibody
Write it as a number; the unit OD goes unstated.

Q) Looking for the measured ELISA OD of VHH clone 8GO9 (VHH) VHH: QVQLVESGGGLVQAGGSLRLSCAASGRTFSRYGMSWFRQAPGKEREFVATISRGGSSTNYADSTKGRFTVSRDNAKNTVVLQMNSLKPEDTAVYYCAADTNWPVGAYEYWGQGTQVTVSS , can you help?
A) 0.068

Q) Could you do the same for VHH clone 8B03 (VHH) VHH: EVQLVESGGGLVQPGGSLRLSCRASGAIFSINHMGWYRQAPGKQRELVATITSGGSTNYADSVKGRFTISRDNAKNTVYLQMNSLKPEDTAVYSCNLDWTTGWGSRRDYWGQGTQVTVSS , please?
A) 0.068

Q) Try this binder next: VHH clone 8G1 (VHH) VHH: QVQLVESGGGLVQPGGSLRLSCRASGAIFSINHMGWYRQAPGKQRELVATITSGGSTNYADSVKGRFTISRDNAKNTVYLQMNSLKPEDTAVYSCNLDWTTGWGSRRDYWGQGTQVTVSS
A) 0.068

Q) // next record VHH clone 8G11 (VHH) VHH: EVQLVESGGGLVQAGGSLRLSCAASGRTFDIYTMGWFRQVPGKEREFVADIGRAGGTTHYADSVKGRFAISRDNANDAVHLQMNSLKPEDTAVYYCATKVVPRAGRRLLDYDYWGQGTQVTVSS
A) 0.054

Q) Now the binder VHH clone 8G12 (VHH) VHH: EVQLVESGGGLVRAGGSLRLSCAASGSIFGTTNMGWYRQAPGTQRDLVATINNGGITNYADSVKGRFTISTDYTKNTVYLQMDRLKPEDTAVYYCNAEYHFRPPSWGQGTQVTVSS
A) 0.2
